target-under-test: Bcl-2 protein (Recombinant Human Bcl-2 Protein) (Homo sapiens)
Construct: purchased Novus NBP2-34889
Sequence (P10415 whole entry): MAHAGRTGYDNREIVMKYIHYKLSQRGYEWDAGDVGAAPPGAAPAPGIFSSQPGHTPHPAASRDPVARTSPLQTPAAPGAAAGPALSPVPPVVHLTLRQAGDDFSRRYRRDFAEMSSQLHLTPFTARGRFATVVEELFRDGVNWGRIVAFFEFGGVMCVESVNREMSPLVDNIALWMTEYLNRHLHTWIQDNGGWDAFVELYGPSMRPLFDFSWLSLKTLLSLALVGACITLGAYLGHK
assay-info: Binding evaluation of mixture library compounds to Bcl-2 using AS-MS (affinity selection mass spectrometry)
run-parameters: AS-MS, mixture library, Bcl-2; replicate n = 2; ASMS Ratio(%)=(A−C)/B×100
property-measured: ASMS ratio (%) n = 2

# count of solved cases: 10
| chemical-string | ASMS ratio (%) n = 2 |
| --- | --- |
| CCOc1cncc(-c2cc(CN3CCN(c4ccc(C(=O)N(CC)CC)cc4)CC3)cc(C(F)(F)F)c2)c1 | 0.0 |
| CCOc1cncc(-c2ccccc2CN2CCN(c3ccc(C(=O)N(CC)CC)nn3)CC2)c1 | 0.9 |
| CCOc1cccc(-c2ccccc2CN2CCN(c3ccc(C(=O)N(CC)CC)nn3)CC2)c1 | −0.5 |
| CCOc1cncc(-c2cc(C(=O)N3CCN(c4ccc(C(=O)NS(=O)(=O)CC56CC7CC(CC(C7)C5)C6)cc4)CC3)cc(C(F)(F)F)c2)c1 | 0.0 |
| CCOc1cccc(-c2ccc(CN3CCN(c4ccc(C(=O)NS(=O)(=O)c5ccc(NCCSc6ccccc6)c([N+](=O)[O-])c5)cc4)CC3)c(OC)c2)c1 | 15.5 |
| CCOc1cccc(-c2ccc(C(=O)N3CCN(c4ccc(C(=O)NS(=O)(=O)c5ccc(NCCSc6ccccc6)c([N+](=O)[O-])c5)cc4)CC3)c3ccccc23)c1 | −13.7 |
| CCOc1cncc(-c2cc(CN3CCN(c4ccc(C(=O)N(CC)CC)cc4)CC3)cc(OC(F)(F)F)c2)c1 | 0.0 |
| CCOc1cccc(C#Cc2cncc(C(=O)N3CCN(c4ccc(C(=O)NS(=O)(=O)CC56CC7CC(CC(C7)C5)C6)cc4)CC3)c2)c1 | 0.3 |
| CCOc1cncc(-c2cc(C(=O)N3CCN(c4ccc(C(=O)NS(=O)(=O)CC56CC7CC(CC(C7)C5)C6)nn4)CC3)cc(C(C)(C)C)c2)c1 | 2.5 |
| CCOc1cncc(-c2ccc(C(=O)N3CCN(c4ccc(C(=O)NS(=O)(=O)c5ccc(NCCSc6ccccc6)c([N+](=O)[O-])c5)nn4)CC3)cc2C)c1 | 8.7 |

[A] CCOc1cccc(-c2ccc(C(=O)N3CCN(c4ccc(C(=O)NS(=O)(=O)c5ccc(NCCSc6ccccc6)c([N+](=O)[O-])c5)cc4)CC3)cc2F)c1
[B] CCOc1cncc(-c2ccccc2CCC(=O)N2CCN(c3ccc(C(=O)NS(C)(=O)=O)cc3)CC2)c1
[C] CCOc1cncc(-c2ccc(C(=O)N3CCN(c4ccc(C(=O)NS(=O)(=O)CC56CC7CC(CC(C7)C5)C6)cc4)CC3)c3ccccc23)c1
(Q) Reorder: ASMS ratio (%) n = 2, max to min. Form entry: ranked labels (order as requested).
(A) B, C, A

Just for reference, patent US20240132431A1 is where these values come from.
